- Test System: T1, mature human TGF-β3 (human, UniProt P10600 301-412)
- T1 sequence: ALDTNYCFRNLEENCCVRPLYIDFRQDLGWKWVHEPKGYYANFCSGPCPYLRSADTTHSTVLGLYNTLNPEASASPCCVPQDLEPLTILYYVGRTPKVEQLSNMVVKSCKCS
- Assay Remarks: cell-based or functional assay
Property: HT-2 cell neutralization assay, IC50 (Mean ng/ml)
A complete answer gives the number followed by the unit.

query: Quick one: HT-2 cell neutralization assay, IC50 (Mean ng/ml) of 1D11.16 (antibody, from another filing, V domains shown) VH: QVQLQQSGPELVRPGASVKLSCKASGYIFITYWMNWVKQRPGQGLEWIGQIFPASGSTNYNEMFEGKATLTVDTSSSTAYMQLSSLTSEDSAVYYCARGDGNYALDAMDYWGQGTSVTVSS VL: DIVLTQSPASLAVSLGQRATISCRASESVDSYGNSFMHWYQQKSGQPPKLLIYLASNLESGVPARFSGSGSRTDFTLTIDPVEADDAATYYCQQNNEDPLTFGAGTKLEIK ?
result: 100 ng/mL

Would you kindly look at the next entry?
query: Quick one: HT-2 cell neutralization assay, IC50 (Mean ng/ml) of mAb 3.A (antibody, human IgG4 S228P, kappa, V domains shown, Full-length monoclonal antibody, made by linking the Fab to an IgG4 Fc region) VH: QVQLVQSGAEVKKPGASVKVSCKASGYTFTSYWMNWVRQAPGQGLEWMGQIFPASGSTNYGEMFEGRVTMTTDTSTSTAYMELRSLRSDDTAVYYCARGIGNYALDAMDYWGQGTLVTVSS VL: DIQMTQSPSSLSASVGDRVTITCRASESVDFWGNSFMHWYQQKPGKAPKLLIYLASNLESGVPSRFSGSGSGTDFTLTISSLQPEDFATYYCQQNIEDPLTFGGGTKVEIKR ?
result: 16.9 ng/mL
